The entries below are paired with their reported composite z-score.
- system_name: Fibroblast growth factor 10 (Homo sapiens) (UniProt O15520)
- Sequence (O15520 whole entry, looked up): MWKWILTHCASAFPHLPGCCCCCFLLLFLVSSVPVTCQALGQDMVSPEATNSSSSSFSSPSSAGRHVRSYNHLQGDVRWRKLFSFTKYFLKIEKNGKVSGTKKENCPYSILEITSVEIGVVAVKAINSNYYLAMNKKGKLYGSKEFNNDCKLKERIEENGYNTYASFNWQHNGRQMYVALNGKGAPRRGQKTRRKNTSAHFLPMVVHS
- run_description: compounds binding fibroblast growth factor 10 – biochemical, small-molecule microarray, 635 nm fluorescence, primary screen (AID 1102)
- particulars: FGF10 binding, fluorescence 635 nm, higher = more signal
measured_parameter: composite z-score

- CCCC=C(CCC)[C@@H](NS(=O)(=O)c1ccccc1)c1ccc(C(F)(F)F)cc1: 0.867
- C=CCC(OC(C)=O)[C@@H]1[C@@H](N(Cc2cc3ccccc3o2)C(=O)Cc2ccc(OC)cc2)c2cc(OCCCO)ccc2N1C(=O)c1ccc(-c2ccccc2)cc1 (some centres undefined): -0.185
- CC(C)(C)OC(=O)CC[C@]1(C(=O)N2CCCCC2)N=C(c2ccc(OCCCO)cc2)O[C@H]1c1ccccc1CN=[N+]=[N-]: 1.42
- O=C(O)[C@@]1(Cc2ccccc2)COC(c2ccc(OCCCO)cc2)=N1: -0.38
- NC(=O)NCC#Cc1ccc2c(c1)[C@]1(C(=O)N2)[C@H](c2ccc(OCCO)cc2)N2[C@H](c3ccccc3)[C@H](c3ccccc3)OC(=O)[C@H]2[C@@H]1C(=O)N1CCCCCCC1: 1.5
- CN(C)CCCC[C@@H]1NC(=O)[C@H]2C[C@@H](C(=O)NCCCCCCNC(=O)CS)[C@@H](c3ccc(O)cc3)N2C1=O: -0.31
- C=CCOC(=O)[C@@H]1[C@H]2C(=O)O[C@H](c3ccccc3)[C@H](c3ccccc3)N2[C@H](c2ccc(OCCOC(=O)[C@H]3C[C@H]4C(=O)N[C@@H](Cc5ccccc5)C(=O)N4[C@H]3c3cccc(OCCO)c3)cc2)[C@@]12C(=O)Nc1ccc(I)cc12: 1.24
- O=C1O[C@@H](c2ccccc2)[C@@H](c2ccccc2)N2[C@@H](c3ccc(O)cc3)[C@]3(C(=O)Nc4ccc(C#CC5(O)CCCCCC5)cc43)[C@@H](C(=O)N3CCN(c4ncccn4)CC3)[C@H]12: 0.74
- CN(C)C(=O)[C@@]1(CCC(=O)OC(C)(C)C)N=C(c2ccc(OCCCO)cc2)O[C@H]1c1ccccc1N=[N+]=[N-]: 1.46
- COc1ccc([Si](C)(C)[C@H]2[C@H](CCO)O[C@@]3(C(=O)N(Cc4cccc(N5CCOC5=O)c4)c4ccccc43)[C@@H]2C)cc1: 0.997
- [N-]=[N+]=NCc1ccccc1C[C@]1(C(=O)NCCN2CCOCC2)N=C(c2ccc(OCCCO)cc2)O[C@H]1c1ccccc1: 1.04
- CCCC=C(CCC)[C@@H](NS(=O)(=O)CC)c1ccccc1: 0.601
- COC(=O)[C@@]1(Cc2ccc(F)cc2)[C@H]2c3cc(C(=O)N(C)C)n(CCSCCO)c3C[C@H]2CN1C(=O)c1ccccc1: 0.438
- Cc1cc(C)c(C(O)C2C=CC3C(=O)N(c4ccccc4)C(=O)C3N2Nc2ccc([N+](=O)[O-])cc2)c(C)c1 (centres undefined): 0.693

The reported measurements were obtained from PubChem BioAssay.
